Tested on: SARS-CoV-2 (USA-WA1/2020) in Calu-3 cells
Type: cell-based
EXPERIMENTAL PARAMETERS: low dose (100 nM), Calu-3, 48 h
Lab note: compare dsRNA signal, AU Low against 10000 AU. Equal or greater, write y. Smaller, write n.

O=C(O)CCC(=O)Nc1ccc(Br)cn1 [Bikinin]
y
CC(C)n1nc(-c2cc3cc(O)ccc3[nH]2)c2c(N)ncnc21 [PP242]
y
O=C(Nc1nccs1)C(c1cc(F)ccc1O)N1Cc2ccccc2C1=O (stereo not drawn) [EAI045]
y
COc1cc2ncnc(Nc3ccc(O)c(Br)c3)c2cc1OC [WHI-P154]
n
Cc1ccc(NC(=O)c2ccc(CN3CC[C@H](N(C)C)C3)c(C(F)(F)F)c2)cc1Nc1nccc(-c2cncnc2)n1 [Bafetinib (INNO-406)]
y
CCCCCCCCc1ccc(CCC(N)(CO)CO)cc1 [Fingolimod (FTY720)]
y
COc1cc2ncnc(Nc3ccc(F)c(Cl)c3)c2cc1NC(=O)/C=C/CN1CCCCC1 [Dacomitinib (PF299804, PF299)]
n
O=c1sn(-c2cccc3ccccc23)c(=O)n1Cc1ccccc1 [Tideglusib]
n
O=C(NOCC1CC1)c1ccc(F)c(F)c1Nc1ccc(I)cc1Cl [PD184352 (CI-1040)]
y
Cc1cc(C)c(/C=C2\C(=O)Nc3ccccc32)[nH]1 [SU5416]
y
Cc1c(NC(=O)c2ccc(C(C)(C)C)cc2)cccc1-c1cn(C)c(=O)c(Nc2ccc(C(=O)N3CCOCC3)cc2)n1 [CGI-1746]
y
c1cc(-c2cnn3cc(-c4ccc(OCCN5CCCCC5)cc4)cnc23)ccn1 [Dorsomorphin (Compound C)]
n
O=C1NC(=NCc2cccs2)S/C1=C\c1ccc2ncccc2c1 [Ro 3306]
y
FC(F)(F)c1ccc(CNc2ccc(Cc3c[nH]c4ncccc34)cn2)cc1 [PLX647]
y
N#Cc1ccc2ncnc(NCCc3ccccc3)c2c1 [Senexin A]
y
O=C(Nc1ccc(CN2CCOCC2)cc1)c1ccc(-c2cccc(Cl)c2)o1 [CID 2011756]
y
Oc1cc(CNC(=S)/C=C/c2cc(O)c(O)c(Br)c2)cc(O)c1O [NT157]
y
O=C(Nc1cc(C(F)(F)F)ccc1N1CCCCC1)c1ccncc1 [SRPIN340]
n

FYI, the data here is from paper PMC12142043.
